Listed substances paired with reported MIC, AC44
Test system: CRAB strain AC44
Assay overview: BPP-PNA MIC, broth microdilution
Format: cell-based, Acinetobacter baumannii
Experimental conditions: Table 4 (anti-rne), brand of medium not given; non-cation-adjusted MHB by method
{(KFF)3K-eg1} = H-(KFF)3K peptide (K lysine, F phenylalanine) with eg1 linker (8-amino-3,6-dioxaoctanoyl), on the PNA N terminus (5' end); {NH2} = C-terminal amide
Remember to quote the unit after the number.

Solved entries (count: 3):
Substance	Observed property	Assay value
H-(KFF)3K-eg1-TTTCATGGGTG-NH2 (antisense; N-terminal (KFF)3K-eg1 peptide, C-terminal amide, backbone not given here, further chemistry not given here) [PNA 5656, anti-rne peptide-PNA conjugate, match, −5 to +6]	MIC, AC44	2 µM
H-(KFF)3K-eg1-GTTTCATGGGT-NH2 (all peptide nucleic acid (PNA), 5' {(KFF)3K-eg1}, 3' {NH2}) [PNA 5655, anti-rne peptide-PNA conjugate, match, −4 to +7]	MIC, AC44	8 µM
H-(KFF)3K-eg1-ACGATTCTTGG-NH2 (all peptide nucleic acid (PNA), 5' {(KFF)3K-eg1}, 3' {NH2}) [PNA 5638, anti-rne mismatch control of 5637]	MIC, AC44	2 µM

// MIC, AC44 lookup, substance = H-(KFF)3K-eg1-ATCCGTTTAAT-NH2 (all peptide nucleic acid (PNA), 5' {(KFF)3K-eg1}, 3' {NH2}) [PNA 5821, anti-rne mismatch control of 5654] , result: 1 µM

====

System: A. baumannii ATCC 19606
Assay overview: BPP-PNA MIC, broth microdilution
Type: cell-based, Acinetobacter baumannii
Experimental conditions: Table 4 (anti-rne), brand of medium not given; non-cation-adjusted MHB by method; 37 °C, 18 h
{(KFF)3K-eg1} = H-(KFF)3K peptide (K lysine, F phenylalanine) with eg1 linker (8-amino-3,6-dioxaoctanoyl), on the PNA N terminus (5' end); {NH2} = C-terminal amide
Observed property: MIC, ATCC 19606 (µM)
Note: unit µM is implicit; provide only the numeric part.

Substance	MIC, ATCC 19606, µM
H-(KFF)3K-eg1-ACGATTCTTGG-NH2 (all peptide nucleic acid (PNA), 5' {(KFF)3K-eg1}, 3' {NH2}) [PNA 5638, anti-rne mismatch control of 5637]	2
H-(KFF)3K-eg1-ATCCGTTTAAT-NH2 (all peptide nucleic acid (PNA), 5' {(KFF)3K-eg1}, 3' {NH2}) [PNA 5821, anti-rne mismatch control of 5654]	4

A. baumannii ATCC 19606 assay, substance H-(KFF)3K-eg1-GTTTCATGGGT-NH2 (all peptide nucleic acid (PNA), 5' {(KFF)3K-eg1}, 3' {NH2}) [PNA 5655, anti-rne peptide-PNA conjugate, match, −4 to +7] , recorded MIC, ATCC 19606 = 4

====

System: CRAB strain AC2
Assay overview: BPP-PNA MIC, broth microdilution
Assay type: cell-based, Acinetobacter baumannii
Experimental conditions: Sigma MHB medium without cation; 37 °C, 18 h
{(KFF)3K-eg1} = H-(KFF)3K peptide (K lysine, F phenylalanine) with eg1 linker (8-amino-3,6-dioxaoctanoyl), on the PNA N terminus (5' end); {(kff)3k-eg1} = D-form (kff)3k peptide with eg1 linker (8-amino-3,6-dioxaoctanoyl), on the PNA N terminus; {NH2} = C-terminal amide
Observed property: MIC, AC2 (µM)
Note: unit µM is implicit; provide only the numeric part.

// MIC, AC2 lookup, substance = H-(KFF)3K-eg1-ATATCGCTCAC-NH2 (all peptide nucleic acid (PNA), 5' {(KFF)3K-eg1}, 3' {NH2}) [PNA 5652, anti-acpP peptide-PNA conjugate, match, +40 to +50] , result: 4

// MIC, AC2 lookup, substance = H-(KFF)3K-eg1-TGACTTGTCAC-NH2 (all peptide nucleic acid (PNA), 5' {(KFF)3K-eg1}, 3' {NH2}) [PNA 5640, anti-acpP mismatch control of 5639] , result: 4

// MIC, AC2 lookup, substance = H-(kff)3k-eg1-TGATTTGCCAC-NH2 (all peptide nucleic acid (PNA), 5' {(kff)3k-eg1}, 3' {NH2}) [PNA 5823, anti-acpP PNA with D-form peptide, match] , result: 4

// MIC, AC2 lookup, substance = H-(KFF)3K-eg1-ATACCGCTTAC-NH2 (all peptide nucleic acid (PNA), 5' {(KFF)3K-eg1}, 3' {NH2}) [PNA 5653, anti-acpP mismatch control of 5652] , result: 4

// MIC, AC2 lookup, substance = H-(kff)3k -eg1-TGACTTGTCAC-NH2 (all peptide nucleic acid (PNA), 5' {(kff)3k-eg1}, 3' {NH2}) [PNA 5824, anti-acpP PNA with D-form peptide, mismatch] , result: 8

====

Listed substances paired with reported MIC, AC46
Tested on: CRAB strain AC46
Assay overview: BPP-PNA MIC, broth microdilution
Format: cell-based, Acinetobacter baumannii
Experimental conditions: Sigma MHB medium without cation; 37 °C, 18 h
{(KFF)3K-eg1} = H-(KFF)3K peptide (K lysine, F phenylalanine) with eg1 linker (8-amino-3,6-dioxaoctanoyl), on the PNA N terminus (5' end); {NH2} = C-terminal amide
Note: unit µM is implicit; provide only the numeric part.

Substance	MIC, AC46 (µM)
H-(KFF)3K-eg1-TGATTTGCCAC-NH2 (antisense; N-terminal (KFF)3K-eg1 peptide, C-terminal amide, backbone not given here, further chemistry not given here) [PNA 5639, anti-acpP peptide-PNA conjugate, match, +1 to +11]	1

Could you now look at the following substance, please?
// MIC, AC46 lookup, substance = H-(KFF)3K-eg1-ATACCGCTTAC-NH2 (all peptide nucleic acid (PNA), 5' {(KFF)3K-eg1}, 3' {NH2}) [PNA 5653, anti-acpP mismatch control of 5652] , result: 4

====

Test system: CRAB strain AC2
Assay overview: Antibiotic MIC (CLSI microdilution or gradient strips)
Assay type: cell-based, Acinetobacter baumannii
Experimental conditions: Acinetobacter baumannii, AC2; wound isolate; CLSI; read-out: MIC, AC2
Description: All minimum inhibitory concentration (MIC) determinations for antibiotics were performed by the standard microdilution method in 96-well microplate (Thermo-Scientific, Roskilde, Denmark) or by gradient test strips (Liofilchem, Italy) according to the Clinical and Laboratory Standards Institute guidelines. Escherichia coli ATCC 25922 was used as control.
Observed property: MIC (µg/mL)
Note: unit µg/mL is implicit; provide only the numeric part.

Compound	Observed property	Assay value
C[C@@H](O)[C@H]1C(=O)N2C(C(=O)O)=C(S[C@@H]3CN[C@H](C(=O)N(C)C)C3)[C@H](C)[C@H]12 [Meropenem]	MIC	16

// MIC lookup, compound = CN(C)c1cc(NC(=O)CNC(C)(C)C)c(O)c2c1C[C@H]1C[C@H]3[C@H](N(C)C)C(O)=C(C(N)=O)C(=O)[C@@]3(O)C(O)=C1C2=O [Tigecycline] , result: 1

// MIC lookup, compound = C[C@@H](O)[C@H]1C(=O)N2C(C(=O)O)=C(SCCN=CN)C[C@H]12 [Imipenem] , result: 16

// MIC lookup, compound = CC(C)(O/N=C(\C(=O)N[C@@H]1C(=O)N2C(C(=O)[O-])=C(C[n+]3ccccc3)CS[C@H]12)c1csc(N)n1)C(=O)O [Ceftazidime] , result: 64

====

System: CRAB strain AC46
Assay overview: BPP-PNA MIC, broth microdilution
Assay type: cell-based, Acinetobacter baumannii
Experimental conditions: Table 4 (anti-rne), brand of medium not given; non-cation-adjusted MHB by method
{(KFF)3K-eg1} = H-(KFF)3K peptide (K lysine, F phenylalanine) with eg1 linker (8-amino-3,6-dioxaoctanoyl), on the PNA N terminus (5' end); {NH2} = C-terminal amide
Observed property: MIC, AC46 (µM)
Note: unit µM is implicit; provide only the numeric part.

Solved entries (count: 5):
Substance	MIC, AC46 / µM
H-(KFF)3K-eg1-ACGATTCTTGG-NH2 (all peptide nucleic acid (PNA), 5' {(KFF)3K-eg1}, 3' {NH2}) [PNA 5638, anti-rne mismatch control of 5637]	1
H-(KFF)3K-eg1-ACGTTTCATGG-NH2 (all peptide nucleic acid (PNA), 5' {(KFF)3K-eg1}, 3' {NH2}) [PNA 5637, anti-rne peptide-PNA conjugate, match, −2 to +9]	1
H-(KFF)3K-eg1-ATCCGTTTAAT-NH2 (all peptide nucleic acid (PNA), 5' {(KFF)3K-eg1}, 3' {NH2}) [PNA 5821, anti-rne mismatch control of 5654]	2
H-(KFF)3K-eg1- TTTGATGTGTG -NH2 (all peptide nucleic acid (PNA), 5' {(KFF)3K-eg1}, 3' {NH2}) [PNA 5822, anti-rne mismatch control of 5656]	8
H-(KFF)3K-eg1-ATACGTTTCAT-NH2 (all peptide nucleic acid (PNA), 5' {(KFF)3K-eg1}, 3' {NH2}) [PNA 5654, anti-rne peptide-PNA conjugate, match, +1 to +11]	2

Could you now look at the following substance, please?
// MIC, AC46 lookup, substance = H-(KFF)3K-eg1-TTTCATGGGTG-NH2 (antisense; N-terminal (KFF)3K-eg1 peptide, C-terminal amide, backbone not given here, further chemistry not given here) [PNA 5656, anti-rne peptide-PNA conjugate, match, −5 to +6] , result: 2
